- test: physchem
Decision: pKa >= 5 yields t, all other cases yield f.

compound=O=C1CC2(CCCC2)CC(=O)N1CCCCN1CCN(c2ncccn2)CC1 class_assignment=t
compound="COc1cc2ncnc(Nc3ccc(F)c(Cl)c3)c2cc1NC(=O)/C=C/CN1CCCCC1 [DACOMITINIB ANHYDROUS]" class_assignment=t
compound=OC(Cn1cncn1)(Cn1cncn1)c1ccc(F)cc1F class_assignment=f
compound=CN(C)CCNc1cc(-c2ccc(N3CCN(C)CC3)cc2)nc2ccccc12 class_assignment=t
compound=N#Cc1ccc(C[C@@H](C(=O)O)N2CCC(CN3CCC(Oc4ccc(Cl)c(Cl)c4)CC3)CC2)cc1 class_assignment=t
compound=C#CCn1c(=O)c2c(-c3cncn3C)n(Cc3ccnc4ccc(Cl)cc34)nc2n(CC2CC2)c1=O class_assignment=f
compound=Cc1nc2ccc(Oc3ccc(F)cc3)cc2c(=O)n1C[C@H]1CCCN(C(C)C)C1 class_assignment=f
compound=CN(C)CCn1nnnc1SCC1=C(C(=O)O)N2C(=O)[C@@H](NC(=O)Cc3csc(N)n3)[C@H]2SC1 class_assignment=f
compound=Cc1ccccc1C[C@@H](C(=O)O)N1CCC(CN2CCC(Oc3ccc(Cl)c(Cl)c3)CC2)CC1 class_assignment=t
